- measured-target: human glucocorticoid receptor-α [GRX] isoform (Homo sapiens, UniProt P04150)
- Construct: host or cells: insect SF21 cells (baculovirus)
- assay-text: Radioligand binding with human glucocorticoid receptor cytosol ([3H]-dexamethasone competition)
- reported-conditions: Ki (nM) GR, GRX cytosol expressed in insect SF21 cells, [3H]-Dex ~0.9 nM, 4° C. overnight; Ki by Cheng-Prusoff, KL ~[…]
Each entry below carries its reported Ki.
measured-endpoint: Ki (nM)

| compound | result-units | quantitative-result |
| --- | --- | --- |
| COc1cccc2c1-c1ccc3c(c1[C@H]([C@H]1C=CCCC1)O2)C(C)=CC(C)(C)N3 [Example 392] | nM | 1.2 |
| COc1cccc2c1-c1ccc3c(c1[C@H]([C@@H]1C=CCCC1)O2)C(C)=CC(C)(C)N3 [Example 391] | nM | 1.7 |

---

- measured-target: human glucocorticoid receptor-α [GRX] isoform (Homo sapiens)
- Construct: host or cells: insect SF21 cells (baculovirus)
- assay-text: Radioligand binding with human glucocorticoid receptor cytosol ([3H]-dexamethasone competition)
- reported-conditions: Ki (nM) GR
Each entry below carries its reported Ki.
measured-endpoint: Ki

| compound | result |
| --- | --- |
| COc1cccc2c1-c1ccc3c(c1C(CC=C(F)F)O2)C(C)=CC(C)(C)N3 (stereo not shown) | 2 nM |
| COc1c(OC(=O)N(C)C)ccc2c1-c1ccc3c(c1C(c1ccccc1OC(=O)N(C)C)O2)C(C)=CC(C)(C)N3 (stereo not shown) | 131 nM |
| C=C1CCCCC1C1Oc2cccc(OC)c2-c2ccc3c(c21)C(C)=CC(C)(C)N3 (mixture of isomers) | 10 nM |
| COc1cccc2c1-c1ccc3c(c1C(C1=CCCCC1)O2)C(C)=CC(C)(C)N3 (stereo not shown) | 24 nM |

---

- measured-target: human progesterone receptor-A [PRA] isoform (Homo sapiens)
- Construct: host or cells: insect SF21 cells (baculovirus)
- Sequence (P06401 165-933): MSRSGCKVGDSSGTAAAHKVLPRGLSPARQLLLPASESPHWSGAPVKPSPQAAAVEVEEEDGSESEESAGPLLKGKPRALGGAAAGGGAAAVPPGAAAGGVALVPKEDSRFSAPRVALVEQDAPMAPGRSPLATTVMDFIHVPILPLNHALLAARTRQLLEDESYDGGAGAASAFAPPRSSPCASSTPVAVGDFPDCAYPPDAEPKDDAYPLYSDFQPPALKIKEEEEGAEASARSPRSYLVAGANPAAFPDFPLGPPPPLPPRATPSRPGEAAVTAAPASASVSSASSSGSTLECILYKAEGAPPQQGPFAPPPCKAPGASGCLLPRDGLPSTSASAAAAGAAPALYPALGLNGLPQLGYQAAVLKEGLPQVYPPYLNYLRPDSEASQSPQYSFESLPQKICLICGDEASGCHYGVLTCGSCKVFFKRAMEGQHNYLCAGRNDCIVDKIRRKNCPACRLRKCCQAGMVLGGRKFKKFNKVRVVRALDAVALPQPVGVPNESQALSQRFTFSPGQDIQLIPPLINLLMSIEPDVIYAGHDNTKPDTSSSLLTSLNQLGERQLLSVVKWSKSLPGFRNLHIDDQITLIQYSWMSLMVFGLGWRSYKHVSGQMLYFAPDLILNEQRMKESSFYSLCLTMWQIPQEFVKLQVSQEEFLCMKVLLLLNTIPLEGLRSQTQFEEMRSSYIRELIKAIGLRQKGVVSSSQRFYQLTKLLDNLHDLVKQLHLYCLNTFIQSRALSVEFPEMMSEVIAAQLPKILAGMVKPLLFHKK
- assay-text: Radioligand binding with human progesterone receptor cytosol ([3H]-progesterone competition)
- reported-conditions: PRA cytosol expressed in insect SF21 cells, [3H]Prog ~0.8 nM, 4° C. overnight; Ki by Cheng-Prusoff, KL ~4.5 nM; read-out: Ki (nM) PR
measured-endpoint: Ki (nM)

| compound | bound-type | quantitative-result |
| --- | --- | --- |
| COc1cccc2c1-c1ccc3c(c1C(c1cc(C)cc(-c4ccco4)c1)O2)C(C)=CC(C)(C)N3 (stereo not shown) | ≥ | 10000 |
| CCC1Oc2cccc(OC)c2-c2ccc3c(c21)C(C)=CC(C)(C)N3 (stereo not shown) | = | 10500 |
| COC(=O)c1cccc2c1-c1ccc3c(c1C(c1ccccc1)O2)C(C)=CC(C)(C)N3 (stereo not shown) | ≥ | 10000 |
| C=CC(=C)CC1Oc2cccc(OC)c2-c2ccc3c(c21)C(C)=CC(C)(C)N3 (stereo not shown) | = | 9900 |

---

- measured-target: human glucocorticoid receptor-α [GRX] isoform (Homo sapiens, UniProt P04150)
- Construct: host or cells: insect SF21 cells (baculovirus)
- Sequence (P04150 1-777): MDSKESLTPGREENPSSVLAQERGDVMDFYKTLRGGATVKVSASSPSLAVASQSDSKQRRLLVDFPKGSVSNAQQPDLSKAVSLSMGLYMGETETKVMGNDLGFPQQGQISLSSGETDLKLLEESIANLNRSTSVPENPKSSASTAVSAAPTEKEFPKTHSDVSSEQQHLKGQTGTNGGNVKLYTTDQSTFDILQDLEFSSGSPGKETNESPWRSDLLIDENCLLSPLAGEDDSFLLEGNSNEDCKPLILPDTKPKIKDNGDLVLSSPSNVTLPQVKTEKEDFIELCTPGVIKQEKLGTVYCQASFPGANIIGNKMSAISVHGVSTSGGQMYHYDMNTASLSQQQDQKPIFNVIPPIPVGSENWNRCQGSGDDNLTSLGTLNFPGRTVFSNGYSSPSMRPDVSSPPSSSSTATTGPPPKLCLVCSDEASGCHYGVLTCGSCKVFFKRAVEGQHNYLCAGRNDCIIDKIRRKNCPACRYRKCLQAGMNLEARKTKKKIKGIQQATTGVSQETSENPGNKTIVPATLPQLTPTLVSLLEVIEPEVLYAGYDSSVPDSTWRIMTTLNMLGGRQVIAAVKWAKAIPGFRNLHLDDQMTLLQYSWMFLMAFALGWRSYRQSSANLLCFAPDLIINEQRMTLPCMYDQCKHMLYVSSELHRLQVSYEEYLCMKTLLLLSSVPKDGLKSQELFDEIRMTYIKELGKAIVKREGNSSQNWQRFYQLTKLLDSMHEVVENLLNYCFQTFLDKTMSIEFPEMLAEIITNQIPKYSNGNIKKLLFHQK
- assay-text: Radioligand binding with human glucocorticoid receptor cytosol ([3H]-dexamethasone competition)
- reported-conditions: GRX cytosol expressed in insect SF21 cells, [3H]-Dex ~0.9 nM, 4° C. overnight; Ki by Cheng-Prusoff, KL ~[…]; read-out: Ki (nM) GR
measured-endpoint: Ki (nM)

| compound | measured-target | result-units | quantitative-result |
| --- | --- | --- | --- |
| C=CCNc1cccc2c1-c1ccc3c(c1C(c1cc(Cl)cc(Cl)c1)O2)C(C)=CC(C)(C)N3 (stereo not shown) | human glucocorticoid receptor-α [GRX] isoform (Homo sapiens, UniProt P04150) | nM | 11.9 |
| COc1cccc2c1-c1ccc3c(c1C(c1ccccn1)O2)C(C)=CC(C)(C)N3 (stereo not shown) | human glucocorticoid receptor-α [GRX] isoform (Homo sapiens, UniProt P04150) | nM | 67 |
| C=CCOc1cccc2c1-c1ccc3c(c1C(c1ccccc1)O2)C(C)=CC(C)(C)N3 (stereo not shown) | human glucocorticoid receptor-α [GRX] isoform (Homo sapiens, UniProt P04150) | nM | 152 |
| CC1=C[C@H]([C@@H]2Oc3ccc(O)c(Cl)c3-c3ccc4c(c32)C(C)=CC(C)(C)N4)CCC1 | human glucocorticoid receptor-α [GRX] isoform (Homo sapiens, UniProt P04150) | nM | 1.4 |
| COc1cccc2c1-c1ccc3c(c1C(c1cccc(Cl)c1)O2)C(C)=CC(C)(C)N3 (stereo not shown) | human glucocorticoid receptor-α [GRX] isoform (Homo sapiens, UniProt P04150) | nM | 8.2 |
| COc1cccc2c1-c1ccc3c(c1[C@@H]([C@H]1C=C(CN(C)C)CCC1)O2)C(C)=CC(C)(C)N3 (relative stereo) | human glucocorticoid receptor-α [GRX] isoform (Homo sapiens, UniProt P04150) | nM | 14 |
| CC1=C[C@H]([C@H]2Oc3ccc(O)c(Cl)c3-c3ccc4c(c32)C(C)=CC(C)(C)N4)CCC1 | human glucocorticoid receptor-α [GRX] isoform (Homo sapiens, UniProt P04150) | nM | 125 |
| COc1cccc2c1-c1ccc3c(c1C(c1ccc(OCSC)cc1)O2)C(C)=CC(C)(C)N3 (stereo not shown) | human glucocorticoid receptor-α [GRX] isoform (Homo sapiens, UniProt P04150) | nM | 10 |
| CNCC1=CC(C2Oc3cccc(OC)c3-c3ccc4c(c32)C(C)=CC(C)(C)N4)CCC1 (stereo not shown) | human glucocorticoid receptor-α [GRX] isoform (Homo sapiens, UniProt P04150) | nM | 82 |
| COc1cccc2c1-c1ccc3c(c1C(c1cccc(OCC4CC4)c1)O2)C(C)=CC(C)(C)N3 (stereo not shown) | human glucocorticoid receptor-α [GRX] isoform (Homo sapiens, UniProt P04150) | nM | 6 |
| C/C=C\C1Oc2cccc(OC)c2-c2ccc3c(c21)C(C)=CC(C)(C)N3 (stereo not shown) | human glucocorticoid receptor-α [GRX] isoform (Homo sapiens, UniProt P04150) | nM | 18 |
| COc1cccc2c1-c1ccc3c(c1C(c1cccc(CCSC)c1)O2)C(C)=CC(C)(C)N3 (stereo not shown) | human glucocorticoid receptor-α [GRX] isoform (Homo sapiens, UniProt P04150) | nM | 11 |
| COc1cc(F)cc2c1-c1ccc3c(c1C(c1ccccc1)O2)C(C)=CC(C)(C)N3 (stereo not shown) | human glucocorticoid receptor-α [GRX] isoform (Homo sapiens, UniProt P04150) | nM | 1.6 |
| C=CCC1Oc2cccc(CN)c2-c2ccc3c(c21)C(C)=CC(C)(C)N3 (stereo not shown) | human glucocorticoid receptor-α [GRX] isoform (Homo sapiens, UniProt P04150) | nM | 142 |
| CC1=CC(C)(C)Nc2ccc3c(c21)C(=Cc1ccccn1)Oc1ccc(O)c(Cl)c1-3 | human glucocorticoid receptor-α [GRX] isoform (Homo sapiens, UniProt P04150) | nM | 0.22 |
| COc1cccc2c1-c1ccc3c(c1C(=Cc1ccccc1F)O2)C(C)=CC(C)(C)N3 | human glucocorticoid receptor-α [GRX] isoform (Homo sapiens, UniProt P04150) | nM | 2.9 |

Hello, the source for this data is patent US6506766B1, in case you need it.
